These data points were gathered from paper PMC11227574.

Please go through the items and note down their pIC50.
Molecular target: eqBuChE (butyrylcholinesterase from equine serum) (Equus caballus)
Assay: biochemical
Details: mean ± SD of three independent experiments
Answer as the number alone; pIC50 is minus log10 of concentration in mol/L.

Please report pIC50 with eqBuChE (butyrylcholinesterase from equine serum) (Equus caballus) for item `Nc1ccccc1Nc1nc(Nc2ccccc2N)c2ccccc2n1` .
4.57

Fill in pIC50 for `Oc1ccccc1Nc1nc(Nc2ccccc2O)c2ccccc2n1` tested with eqBuChE (butyrylcholinesterase from equine serum) (Equus caballus).
4.43

// fetch pIC50; item: `Cc1ccc(O)c(Nc2nc(Nc3cc(C)ccc3O)c3ccccc3n2)c1` ; system: eqBuChE (butyrylcholinesterase from equine serum) (Equus caballus)
5.44

Give the observed pIC50 of `Brc1cccc(Nc2nc(Nc3cccc(Br)c3)c3ccccc3n2)c1` for eqBuChE (butyrylcholinesterase from equine serum) (Equus caballus).
4.38

Using eqBuChE (butyrylcholinesterase from equine serum) (Equus caballus) as the test system, report measured pIC50 of `Cc1ccc(Nc2nc(Nc3ccc(C)cc3)c3ccccc3n2)cc1` .
6.28

Print eqBuChE (butyrylcholinesterase from equine serum) (Equus caballus) pIC50 for `FC(F)(F)c1cccc(Nc2nc(Nc3cccc(C(F)(F)F)c3)c3ccccc3n2)c1` .
4.36

// fetch pIC50 for `COc1ccc(Nc2nc(Nc3ccc(OC)cc3)c3ccccc3n2)cc1` ; system: eqBuChE (butyrylcholinesterase from equine serum) (Equus caballus)
4.32

Give reported pIC50 for `COc1ccc(Nc2nc(Nc3ccc(OC)cc3OC)c3ccccc3n2)c(OC)c1` (eqBuChE (butyrylcholinesterase from equine serum) (Equus caballus))
5.17

###

Target: eqBuChE (butyrylcholinesterase from equine serum) (Equus caballus, UniProt P81908)
Sequence (P81908 whole entry): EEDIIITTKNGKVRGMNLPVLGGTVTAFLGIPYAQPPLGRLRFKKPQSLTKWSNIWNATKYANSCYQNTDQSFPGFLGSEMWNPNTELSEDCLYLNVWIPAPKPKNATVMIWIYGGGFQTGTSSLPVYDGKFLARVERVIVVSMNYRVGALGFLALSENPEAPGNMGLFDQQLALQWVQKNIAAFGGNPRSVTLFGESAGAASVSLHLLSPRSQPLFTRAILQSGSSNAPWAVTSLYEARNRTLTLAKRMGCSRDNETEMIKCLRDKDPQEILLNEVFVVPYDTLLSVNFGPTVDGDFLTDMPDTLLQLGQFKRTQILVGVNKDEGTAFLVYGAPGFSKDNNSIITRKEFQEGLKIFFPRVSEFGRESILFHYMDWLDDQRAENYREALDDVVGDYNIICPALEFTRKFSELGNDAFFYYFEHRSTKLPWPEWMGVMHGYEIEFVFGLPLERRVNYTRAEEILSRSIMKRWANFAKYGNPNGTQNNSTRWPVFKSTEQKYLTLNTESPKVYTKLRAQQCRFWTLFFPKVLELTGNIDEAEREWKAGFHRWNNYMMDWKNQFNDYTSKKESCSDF
Assay: biochemical
Format: biochemical
Conditions: read-out: eqBuChE: % inhibition
Readout label: inhibition at 50 µM (%)
Kindly provide the numeric value in % only, without the unit symbol.

Please indicate inhibition at 50 µM recorded for `Cc1ccc(O)c(Nc2nc(Nc3cc(C)ccc3O)c3ccccc3n2)c1`
91.6

Give recorded inhibition at 50 µM. `COc1ccc(Nc2nc(Nc3ccc(OC)cc3)c3ccccc3n2)cc1`
51.5

Identify the reported inhibition at 50 µM for the following entry. `Nc1ccccc1Nc1nc(Nc2ccccc2N)c2ccccc2n1`
64.1

Give the reported value of inhibition at 50 µM for this record: `Cc1ccc(Nc2nc(Nc3ccc(C)cc3)c3ccccc3n2)cc1`
96.7

Provide one value: measured inhibition at 50 µM of `Brc1cccc(Nc2nc(Nc3cccc(Br)c3)c3ccccc3n2)c1`
56.1

###

Target: eelAChE (acetylcholinesterase from the electric eel) (Electrophorus electricus)
Construct: purchased Sigma Aldrich
Sequence (O42275 24-633): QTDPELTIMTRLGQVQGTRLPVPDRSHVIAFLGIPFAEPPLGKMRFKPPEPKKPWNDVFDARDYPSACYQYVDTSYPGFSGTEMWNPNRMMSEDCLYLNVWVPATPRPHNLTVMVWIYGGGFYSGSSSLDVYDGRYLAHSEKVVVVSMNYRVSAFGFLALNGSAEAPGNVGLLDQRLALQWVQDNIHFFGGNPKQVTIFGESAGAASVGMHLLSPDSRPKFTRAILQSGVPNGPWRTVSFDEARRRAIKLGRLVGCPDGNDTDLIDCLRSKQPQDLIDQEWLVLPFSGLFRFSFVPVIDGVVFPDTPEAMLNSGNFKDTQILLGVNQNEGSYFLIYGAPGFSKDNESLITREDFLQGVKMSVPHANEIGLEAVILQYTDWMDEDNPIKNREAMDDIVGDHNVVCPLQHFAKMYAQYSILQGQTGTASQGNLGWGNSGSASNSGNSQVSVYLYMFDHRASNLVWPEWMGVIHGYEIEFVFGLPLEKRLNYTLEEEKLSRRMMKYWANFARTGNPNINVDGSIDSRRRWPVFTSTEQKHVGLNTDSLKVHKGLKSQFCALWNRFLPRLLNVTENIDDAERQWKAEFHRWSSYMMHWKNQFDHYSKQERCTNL
Assay: biochemical
Settings: read-out: eelAChE: % inhibition
Readout label: inhibition at 50 µM (%)
Just the number please, in %, no unit attached.

Assign inhibition at 50 µM to the following record: `Brc1ccccc1Nc1nc(Nc2ccccc2Br)c2ccccc2n1`
12.4

Indicate the recorded inhibition at 50 µM value for this compound: `Brc1cccc(Nc2nc(Nc3cccc(Br)c3)c3ccccc3n2)c1`
23.5

Identify inhibition at 50 µM associated with the compound `Cc1ccc(Nc2nc(Nc3ccc(C)cc3)c3ccccc3n2)cc1`
40.3

Note inhibition at 50 µM for the compound shown: `Cc1ccc(O)c(Nc2nc(Nc3cc(C)ccc3O)c3ccccc3n2)c1`
45.2

Quote inhibition at 50 µM reported for `Oc1ccccc1Nc1nc(Nc2ccccc2O)c2ccccc2n1` please.
8.7

Let me know recorded inhibition at 50 µM for `FC(F)(F)c1cccc(Nc2nc(Nc3cccc(C(F)(F)F)c3)c3ccccc3n2)c1` , thanks.
16.5

Report measured inhibition at 50 µM; entry is `COc1ccc(Nc2nc(Nc3ccc(OC)cc3)c3ccccc3n2)cc1`
11

State its inhibition at 50 µM: `Nc1ccccc1Nc1nc(Nc2ccccc2N)c2ccccc2n1`
6.15

Please look at this compound and report its inhibition at 50 µM: `COc1ccc(Cl)cc1Nc1nc(Nc2cc(Cl)ccc2OC)c2ccccc2n1`
13.7

Could you please provide reported inhibition at 50 µM for `COc1ccc(Nc2nc(Nc3ccc(OC)cc3OC)c3ccccc3n2)c(OC)c1` ? Thanks!
52.4
